Every entry's value here was drawn from paper PMC5944358.

Listed below: k-2 (step 2, reverse) values for each entry.
- MEASUREMENT_TARGET: HIV-1 YU2 gp120 (HIV-1 YU2, UniProt P35961 32-498)
- TEST_METHOD_NOTES: SPR
All answers are understood in s⁻¹, so give the number only.

MVN(Q81K/M83R) (natural protein) MPNFSHTCSSINYDPDSTILSAECQARDGEWLPTELRLSDHIGNIDGELQFGDQNFQETCQDCHLEFGDGEQSVWLVCTCKTRDGEWKSTQILLDSQIDNNDSQLEIG ... 0.0011

Task item: # k-2 (step 2, reverse) lookup, item MVN_G43E/Q81K (natural protein) MPNFSHTCSSINYDPDSTILSAECQARDGEWLPTELRLSDHIENIDGELQFGDQNFQETCQDCHLEFGDGEQSVWLVCTCKTMDGEWKSTQILLDSQIDNNDSQLEIG
Reply: 0.0027
